Cited source for all entries: the Kinase Knowledgebase extract (Sharma et al. 2016)

measured-target: PIK3CA (human)
Consider the following compounds; for each one, report its pIC50.
Entry type: numeric. Quantity: pIC50, the -log10 of concentration in molar units.

Lab entry: PIK3CA (human) assay, compound CCn1nnc2c(N3CCOCC3)nc(-c3ccc(NC(=O)Nc4ccc(NC(=O)N5CCC(N(C)C)CC5)cc4)cc3)nc21 , pIC50 = 6.21

Fill in: PIK3CA (human) pIC50 for CCn1nnc2c(N3CCOCC3)nc(-c3ccc(NC(=O)Nc4ccc(NCc5ccc(F)nc5)cc4)cc3)nc21 = 6.24

Result for CCn1nnc2c(N3CCOCC3)nc(-c3ccc(NC(=O)Nc4ccc([N+](=O)[O-])cc4)cc3)nc21 , tested on PIK3CA (human), pIC50: 6.31

// assay PIK3CA (human), entry CCn1nnc2c(N3CCOC[C@@H]3C)nc(-c3ccc(NC(=O)Nc4ccc(C(=O)NCCN5CCCC5)cc4)cc3)nc21 , pIC50 value = 6.22

* * *

Reported pIC50 values, PIK3CA (human) (UniProt P42336).
On this scale, pIC50 is minus log10 of a concentration expressed in M (mol/L).

Short answer for CN(C)CCNC(=O)c1ccc(NC(=O)Nc2ccc(-c3nc(N4CCOCC4)c4nnn(-c5cccc(C(N)=O)c5)c4n3)cc2)cc1 : pIC50 was 6.19

Entry under test: CCn1nnc2c(N3CCOCC3)nc(-c3ccc(NC(=O)Nc4ccc(NC(=O)NCCOC)cc4)cc3)nc21 . Its pIC50 was 6.25

Recorded result, CCn1nnc2c(N3CCOC[C@@H]3C)nc(-c3ccc(NC(=O)Nc4ccc(C(=O)NCCN5CCCCC5)cc4)cc3)nc21 , pIC50: 6.21

For CCn1nnc2c(N3CCOCC3)nc(-c3ccc(NC(=O)Nc4ccc(N)cc4)cc3)nc21 the molecule record lists pIC50 as 6.34

Value of pIC50 reported for the molecule CCn1nnc2c(N3CCOCC3)nc(-c3ccc(NC(=O)Nc4ccc(NC(=O)NCc5ccccn5)cc4)cc3)nc21 is 6.23

Please fill in: pIC50 reported for CCn1nnc2c(N3CCOCC3)nc(-c3ccc(NC(=O)Nc4ccc(NC(=O)N5CCN(C)CC5)cc4)cc3)nc21 = 6.23

Looking up CCn1nnc2c(N3CCOCC3)nc(-c3ccc(NC(=O)Nc4ccc(NCc5ccc(OC)nc5)cc4)cc3)nc21 , I found its pIC50 recorded as 6.24

Kindly note the recorded pIC50 for CCn1nnc2c(N3CCOCC3)nc(-c3ccc(NC(=O)Nc4ccc(NC(=O)c5ccncc5)cc4)cc3)nc21 , which is 6.25

* * *

measured-target: PIK3CA (human)
For each entry below, report its IC50 value.
Supply the numeric figure in nM, leaving out any unit text.

Just so you know, measured IC50 for CCn1nnc2c(N3CCOCC3)nc(-c3ccc(NC(=O)Nc4ccc(NC(=O)N5CCNCC5)cc4)cc3)nc21 came out at 573

Note to self: IC50 recorded for CCn1nnc2c(N3CCOCC3)nc(-c3ccc(NC(=O)Nc4ccc(NC(=O)N(C)CCN(C)C)cc4)cc3)nc21 was 588

IC50 for CCn1nnc2c(N3CCOCC3)nc(-c3ccc(NC(=O)Nc4ccc(NC(=O)CN(C)C)cc4)cc3)nc21 is 574

IC50 reported for this compound CC(C)n1nnc2c(N3CCOCC3)nc(-c3ccc(NC(=O)Nc4ccc(N)cc4)cc3)nc21 : 473

Measured IC50 of CN(C)CCNC(=O)c1ccc(NC(=O)Nc2ccc(-c3nc(N4CCOCC4)c4nnn(-c5cccc(C(=O)O)c5)c4n3)cc2)cc1 : 651

IC50 reading for CCn1nnc2c(N3CCOCC3)nc(-c3ccc(NC(=O)Nc4ccc(NC(=O)NCCN5CCCC5)cc4)cc3)nc21 : 601

IC50 recorded for this compound, CCn1nnc2c(N3CCOCC3)nc(-c3ccc(NC(=O)Nc4ccc(C(=O)N5CCN(C)CC5)nc4)cc3)nc21 , is 572

IC50 for CCN1CCN(C(=O)Nc2ccc(NC(=O)Nc3ccc(-c4nc(N5CCOCC5)c5nnn(CC)c5n4)cc3)cc2)CC1 is 600

* * *

measured-target: PIK3CG (human) (UniProt P48736)
Sequence (P48736 whole entry, looked up): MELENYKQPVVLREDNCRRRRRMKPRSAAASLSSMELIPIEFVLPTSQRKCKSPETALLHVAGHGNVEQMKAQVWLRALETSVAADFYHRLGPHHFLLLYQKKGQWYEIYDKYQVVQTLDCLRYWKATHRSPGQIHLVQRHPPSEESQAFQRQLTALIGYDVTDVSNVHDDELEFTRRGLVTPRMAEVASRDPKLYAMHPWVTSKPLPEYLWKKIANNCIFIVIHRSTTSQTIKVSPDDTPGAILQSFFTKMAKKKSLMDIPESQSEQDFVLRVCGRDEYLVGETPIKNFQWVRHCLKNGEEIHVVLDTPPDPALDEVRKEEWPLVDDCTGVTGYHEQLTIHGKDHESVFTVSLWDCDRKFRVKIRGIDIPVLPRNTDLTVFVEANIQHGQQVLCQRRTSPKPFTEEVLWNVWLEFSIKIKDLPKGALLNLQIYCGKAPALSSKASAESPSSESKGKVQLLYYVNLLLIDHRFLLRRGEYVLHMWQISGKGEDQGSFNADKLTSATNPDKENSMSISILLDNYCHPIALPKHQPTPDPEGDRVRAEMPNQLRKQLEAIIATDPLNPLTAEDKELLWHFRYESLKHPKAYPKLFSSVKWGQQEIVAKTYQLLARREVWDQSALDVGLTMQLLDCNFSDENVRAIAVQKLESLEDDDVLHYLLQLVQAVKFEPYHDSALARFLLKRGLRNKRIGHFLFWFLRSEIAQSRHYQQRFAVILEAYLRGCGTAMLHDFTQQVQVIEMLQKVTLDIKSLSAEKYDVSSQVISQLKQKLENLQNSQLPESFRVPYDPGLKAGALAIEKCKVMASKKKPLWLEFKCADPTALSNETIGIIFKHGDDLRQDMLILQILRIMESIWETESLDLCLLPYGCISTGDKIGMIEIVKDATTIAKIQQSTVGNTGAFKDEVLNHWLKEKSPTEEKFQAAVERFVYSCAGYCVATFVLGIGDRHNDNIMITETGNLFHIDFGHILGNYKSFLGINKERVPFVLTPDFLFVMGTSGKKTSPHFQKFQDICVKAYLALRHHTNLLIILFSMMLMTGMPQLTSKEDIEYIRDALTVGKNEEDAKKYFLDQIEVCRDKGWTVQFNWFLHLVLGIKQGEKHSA
property-measured: log10 of IC50 (log10 of the value in nM)
Scale: decimal log of IC50, IC50 in nM.

Input CCn1nnc2c(N3CCOCC3)nc(-c3ccc(NC(=O)Nc4ccc(NC(=O)CN(C)C)cc4)cc3)nc21 . Output log10 of IC50: 0.12

log10 of IC50 for CCn1nnc2c(N3CCOCC3)nc(-c3ccc(NC(=O)Nc4ccc(NC(=O)N5CCNCC5)cc4)cc3)nc21 is 0.23

Sure, the documented log10 of IC50 for Oc1cccc(-c2nc(N3CCOCC3)c3nnn(C4CCN(Cc5ccc[nH]5)CC4)c3n2)c1 is 2.63

Record CCn1nnc2c(N3CCOCC3)nc(-c3ccc(NC(=O)Nc4ccc(C(=O)Nc5cccnc5)cc4)cc3)nc21 . Reported log10 of IC50: 0.27

log10 of IC50 reading for CCn1nnc2c(N3CCOCC3)nc(-c3ccc(NC(=O)Nc4ccc(NC(=O)c5ccncc5)cc4)cc3)nc21 : 0.27

Just so you know, measured log10 of IC50 for CCn1nnc2c(N3CCOCC3)nc(-c3ccc(NC(=O)Nc4ccc(NCc5cccnc5)cc4)cc3)nc21 came out at 0.52

Value of log10 of IC50 reported for the compound CC(C)n1nnc2c(N3CCOCC3)nc(-c3ccc(NC(=O)Nc4ccc(C(=O)NCCN(C)C)cc4)cc3)nc21 is 0.30

Short answer for CCn1nnc2c(N3CCOCC3)nc(-c3ccc(NC(=O)Nc4ccc(C(=O)O)nc4)cc3)nc21 : log10 of IC50 was 0.52

The reported value for CC(C)(C)OC(=O)N1CC(n2nnc3c(N4CCOCC4)nc(-c4ccc(NC(=O)Nc5ccccc5)cc4)nc32)C1 in terms of log10 of IC50 is 2.90

# log10 of IC50 (compound: CCn1nnc2c(N3CCOCC3)nc(-c3ccc(NC(=O)Nc4ccc(N)cc4)cc3)nc21 ) is 0.87

Sample CCn1nnc2c(N3CCOCC3)nc(-c3ccc(NC(=O)Nc4ccc(NC(=O)N5CCC(N6CCCC6)CC5)cc4)cc3)nc21 ; log10 of IC50 observed: -0.12

For reference, reported log10 of IC50 for Oc1cccc(-c2nc(N3CCOCC3)c3nnn(CCCCN4CCN(Cc5ccccc5)CC4)c3n2)c1 stands at 2.33

Input CCn1nnc2c(N3CCOCC3)nc(-c3ccc(NC(=O)Nc4ccc(NC(=O)NCc5ccccn5)cc4)cc3)nc21 . Output log10 of IC50: 0.52

The compound listed as CCn1nnc2c(N3CCOCC3)nc(-c3ccc(NC(=O)Nc4ccc(NC(=O)N5CCN(C)CC5)cc4)cc3)nc21 shows log10 of IC50 equal to 0.27

* * *

So I've got a bunch of compounds here, and I need their IC50 values.
Use nM as the unit, but write only the number.

The measured IC50 that CCn1nnc2c(N3CCOCC3)nc(-c3ccc(NC(=O)Nc4ccc(NC(=O)c5cccc(N(C)C)c5)cc4)cc3)nc21 showed for PIK3CA (human) (UniProt P42336) is 607

Tested on PIK3CA (human) (UniProt P42336): CC(C)n1nnc2c(N3CCOCC3)nc(-c3ccc(NC(=O)Nc4ccc(C(=O)N5CCN(C)CC5)cc4)cc3)nc21 . Observed IC50: 585

CCn1nnc2c(N3CCOCC3)nc(-c3ccc(NC(=O)Nc4ccc(C(=O)N(C)CCN(C)C)nc4)cc3)nc21 on PIK3CA (human) (UniProt P42336) gives IC50 = 560

IC50 for PIK3CA (human) (UniProt P42336) with input CCn1nnc2c(N3CCOCC3)nc(-c3ccc(NC(=O)Nc4ccc(NC(=O)NC5CCN(C)CC5)cc4)cc3)nc21 equals 601
